# Test system: PRKACA-PRKAR2A interaction (SmBiT-PRKACA / LgBiT-PRKAR2A), protein kinase A
# Design: NanoLuc complementation counter-screen in cell extract, PRKACA with PRKAR2A, loss of luminescence, detects NanoLuc interference
# condition.context: counter-screen for NanoLuc interference; 0.5 h, 20 µM; inhibitor
Where a name gives a salt, the structure may show the parent alone. Square brackets hold non-standard residues; d marks the D form. Peptide text beside a SMILES is read from it. ξ: configuration not given here. ξL = CC(C)CC(N)C(=O)O; ξM = CSCCC(N)C(=O)O
quantity.measured: Inh (PKA)

Example molecules with recorded Inh (PKA):
[
  {
    "molecule": "COc1cc(C(=O)N2CCC(N3CCN(C)CC3)CC2)ccc1Nc1ncc2c(n1)N(C)c1ccccc1C(=O)N2C [UM0141580:01, LRRK2-IN-1]",
    "Inh (PKA)": "12.15%"
  },
  {
    "molecule": "O=C1NC(=O)C(c2cnc3ccccn23)=C1c1cn2c3c(cc(F)cc13)CN(C(=O)N1CCCCC1)CC2 [UM0141581:01, LY2090314]",
    "Inh (PKA)": "40.49%"
  },
  {
    "molecule": "COc1cccc(OCCCN)c1-c1cc(Nc2cnc(C#N)cn2)n[nH]1 [UM0142169:01, LY2606368]",
    "Inh (PKA)": "14.04%"
  },
  {
    "molecule": "C1CCc2nnnn2CC1 [UM0118375:03, Pentylenetetrazole]",
    "Inh (PKA)": "-0.7973%"
  },
  {
    "molecule": "CC(=O)N[C@@H](CC(C)C)C(=O)N[C@@H](CC(C)C)C(=O)N[C@H](C=O)CCCNC(=N)N [UM0141467:01, Leupeptin, Microbial]",
    "Inh (PKA)": "0.9653%"
  },
  {
    "molecule": "CC(N)=NCc1cccc(CN)c1 [UM0142778:01, 1400W dihydrochloride]",
    "Inh (PKA)": "-1.118%"
  }
]

Ask: GET /values?readout=Inh (PKA)&item= CSCCC(C=O)NC(=O)C(CC(C)C)NC(=O)[C@H](CC(C)C)NC(C)=O (some centres unmarked) [UM0141476:01, Calpain Inhibitor II, ALLM] (Ac-Leu-[ξL]-[ξM]-aldehyde)
Result: 1.385%

Ask: // repeat for O=C(CCCCCCC(=O)Nc1ccc(I)cc1)NO [UM0142835:01, 4-iodo-SAHA] and report
Result: 5.197%

Ask: Same again, this time with O=c1[nH]c2ccccc2n1C1CCN(Cc2ccc(-c3[nH]c4cc5ncnc5cc4nc3-c3ccccc3)cc2)CC1 [UM0127809:02, AKT inhibitor VIII]
Result: 16.69%

Ask: Then CCOc1cc(N2CCC(O)CC2)ccc1Nc1ncc2c(n1)N(C)c1ccccc1C(=O)N2C [UM0141652:01, XMD8-92] ?
Result: 14.04%

Ask: Please do the same for Nc1nc(=O)n([C@@H]2CS[C@H](CO)O2)cc1F [UM0142037:01, Emtricitabine] as well.
Result: -0.284%

Ask: Also, COc1ccc(-c2oc3c(CC=C(C)C)c(O[C@@H]4O[C@H](CO)[C@@H](O)[C@H](O)[C@H]4O)cc(O)c3c(=O)c2O[C@@H]2O[C@@H](C)[C@H](O)[C@@H](O)[C@H]2O)cc1 [UM0133190:02, Icariin] please.
Result: 17.39%

Ask: Another molecule to look at: Cc1ccc(NC(=O)C2(c3ccc4c(c3)OC(F)(F)O4)CC2)nc1-c1cccc(C(=O)O)c1 [UM0142010:01, VX-809]
Result: 21.09%

Ask: Subsequent entry: CCc1cc(Nc2nccc(-c3c(-c4ccc(OC)c(C(=O)Nc5c(F)cccc5F)c4)nc4ccccn34)n2)c(OC)cc1N1CCC(N2CCN(S(C)(=O)=O)CC2)CC1 [UM0141389:01, GSK1904529A]
Result: 3.167%

Ask: Consider next the molecule CN(C)C(=O)c1ccc(S(=O)(=O)c2ccc(NC(=O)[C@@](C)(O)C(F)(F)F)c(Cl)c2)cc1 [UM0142195:01, AZD7545] in the same way.
Result: 0.1491%

Ask: Next record, please: C[C@@H](O[C@H]1OCCN(Cc2n[nH]c(=O)[nH]2)[C@H]1c1ccc(F)cc1)c1cc(C(F)(F)F)cc(C(F)(F)F)c1 [UM0141409:01, Aprepitant]
Result: 12.87%

Ask: Queued: CC(C)CN(C[C@@H](O)[C@H](Cc1ccccc1)NC(=O)O[C@H]1CO[C@H]2OCC[C@H]21)S(=O)(=O)c1ccc(N)cc1 [UM0141950:01, Darunavir]
Result: 4.833%
